test: Ratio of drug concentration in Sprague-Dawley rat brain to plasma at 1 uM measured for 5 to 60 mins by LCMS analysis; format: ADME, cell-free; conditions: time 5-60 min
propertyMeasured: BPR

smilesStr: CCn1cc(Cl)c2c(Cc3ccc(C(F)(F)F)nc3)n(C)nc2c1=O
propertyMeasured: BPR
assayValue: 0.72

smilesStr: CCn1ccc2c([C@](O)(c3cnc(C(F)(F)F)c(Cl)c3)C3CC3)n(C)nc2c1=O
propertyMeasured: BPR
assayValue: 0.84

smilesStr: CCn1cc(C2CC2)c2c(Cc3ccc(C(F)(F)F)nc3)n(C)nc2c1=O
propertyMeasured: BPR
assayValue: 0.65

smilesStr: CC[C@@](N)(c1cnc(C(F)(F)F)c(Cl)c1)c1c2ccn(C3CC3)c(=O)c2nn1C
propertyMeasured: BPR
assayValue: 0.73

smilesStr: CCn1cc(C)c2c([C@H](N)c3ccc(C(F)(F)F)nc3)n(C)nc2c1=O
propertyMeasured: BPR
assayValue: 1.1

smilesStr: Cn1nc2c(=O)n(C3CC3)ccc2c1[C@](O)(c1cnc(C(F)(F)F)c(Cl)c1)C(F)(F)F
propertyMeasured: BPR
assayValue: 0.79

###

target: Dihydroorotate dehydrogenase (quinone), mitochondrial (Plasmodium falciparum (isolate 3D7)); assay: Inhibition of N-terminal His6-tagged recombinant Plasmodium falciparum DHODH (158 to 569 residues) N-terminally truncated soluble domain extracted from Escherichia coli phage resistant BL21-DE3 using CoQD/DHA/DCIP as substrates
Sequence (Q08210 whole entry, the tested form may be a part): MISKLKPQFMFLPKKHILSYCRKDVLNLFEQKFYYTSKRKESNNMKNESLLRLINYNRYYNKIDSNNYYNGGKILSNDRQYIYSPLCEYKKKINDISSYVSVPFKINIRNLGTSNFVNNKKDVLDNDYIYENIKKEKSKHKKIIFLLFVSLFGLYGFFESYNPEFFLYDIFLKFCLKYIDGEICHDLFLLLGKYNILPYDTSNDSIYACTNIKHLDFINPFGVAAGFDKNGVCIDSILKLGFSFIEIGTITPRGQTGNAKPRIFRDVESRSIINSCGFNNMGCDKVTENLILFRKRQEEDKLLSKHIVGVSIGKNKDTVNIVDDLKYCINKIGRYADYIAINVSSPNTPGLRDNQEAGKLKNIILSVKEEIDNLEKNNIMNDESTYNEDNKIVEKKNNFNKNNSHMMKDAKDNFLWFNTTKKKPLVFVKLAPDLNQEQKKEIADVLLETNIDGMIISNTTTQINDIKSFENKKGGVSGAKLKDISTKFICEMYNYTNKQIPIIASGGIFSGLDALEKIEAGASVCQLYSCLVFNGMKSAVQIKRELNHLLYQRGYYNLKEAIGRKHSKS
propertyMeasured: IC50 (nM)
Give just the number in nM; leave the unit off.

smilesStr: CCn1cc(C)c2c(Cc3ccc(C(F)(F)F)nc3)n(C)nc2c1=O
IC50 (nM): 70
//
smilesStr: CCn1cc(C2CC2)c2c(Cc3ccc(C(F)(F)F)c(F)c3)n(C)nc2c1=O
IC50 (nM): 14
//
smilesStr: CC[C@](O)(c1cnc(C(F)(F)F)c(Cl)c1)c1c2ccn(C3CC3)c(=O)c2nn1C
IC50 (nM): 14000

For the compound shown here, Cn1nc2c(=O)n(C3CC3)cnc2c1[C@](O)(c1ccc(C(F)(F)F)c(Cl)c1)C(F)(F)F , give the reported IC50.
5

Which IC50 value belongs to CC[C@](N)(c1cnc(C(F)(F)F)c(Cl)c1)c1c2ncn(C3CC3)c(=O)c2nn1C ?
4200

###

experiment: Half life in overnight-fasted male Sprague-Dawley rat at 3 mg/kg, po or 1 mg/kg, iv measured upto 72 hrs by LCMS analysis; assay type: ADME, organism-based; conditions: in vivo
propertyMeasured: t1/2 (h)

Here is how some molecules turned out for t1/2.
smilesStr: Cn1nc2c(=O)n(C3CC3)ccc2c1[C@](O)(c1cnc(C(F)(F)F)c(Cl)c1)C1CC1
propertyMeasured: t1/2
assayValue: 19
--
smilesStr: Cc1nn(C2CC2)c(=O)c2nn(C)c(Cc3ccc(C(F)(F)F)c(C#N)c3)c12
propertyMeasured: t1/2
assayValue: 31
--
smilesStr: CC[C@@](N)(c1cnc(C(F)(F)F)c(Cl)c1)c1c2ccn(C3CC3)c(=O)c2nn1C
propertyMeasured: t1/2
assayValue: 15
--
smilesStr: Cn1nc2c(=O)n(C3CC3)ncc2c1[C@](N)(c1ccc(C(F)(F)F)c(Cl)c1)C1CC1
propertyMeasured: t1/2
assayValue: 17

(I) CCn1ccc2c([C@@](O)(CC)c3ccc(C(F)(F)F)nc3)n(C)nc2c1=O
(II) Cn1nc2c(=O)n(C3CC3)ncc2c1[C@](O)(c1cnc(C(F)(F)F)c(Cl)c1)C(F)(F)F
Hello, I am sorting some records. Could you say if I or II has the smaller t1/2 value? State your choice using its label.
I
